Assignment: determine reported composite z-score for the given molecules.
target: Carbonic anhydrase 2 (Homo sapiens) (UniProt P00918); assay: CAII small-molecule binders, profiling panel, biochemical, small-molecule microarray, Alexa647-labelled CAII (AID 1122); settings: CAII-A647 binding fluorescence, higher = more signal
Give bare numbers.

Field: example entries. Status: answers known.
Data request, read-out composite z-score, for CC(C)[Si](C#Cc1ccc(Oc2ccccc2)cc1)(O[Si](C#Cc1ccc(Oc2ccccc2)cc1)(C(C)C)C(C)C)C(C)C
0.603

Data request, read-out composite z-score, for COC(=O)[C@@]1(Cc2ccc(F)cc2)[C@H]2c3cc(C(=O)N(C)C)n(Cc4ccc(Cl)c(C(F)(F)F)c4)c3C[C@H]2CN1C(=O)c1ccccc1
0.77

Data request, read-out composite z-score, for COCCOC(=O)N1C(=O)[C@@]2(c3cc(C#Cc4ccc(OC)cc4)ccc31)[C@H](c1ccc(O)cc1)N1[C@H](c3ccccc3)[C@H](c3ccccc3)OC(=O)[C@H]1[C@@H]2C(=O)N1CCc2cc(OC)c(OC)cc2C1
0.117

For each of the molecules below, state composite z-score.
1. C=C(CCCC)C(=O)CC[C@@H](OC(=O)c1ccccc1-c1ccccc1C(=O)O)c1ccc(OCCO)cc1
2. O=C1O[C@H](c2ccccc2)[C@H](c2ccccc2)N2[C@H]1[C@@H](C(=O)N1CCCCCCC1)[C@]1(C(=O)Nc3ccc(C#CC4=CCCCC4)cc31)[C@H]2c1ccc(OCCO)cc1
3. C=CCC(OC(C)=O)[C@@H]1[C@@H](N(Cc2ccc(-c3ccccc3)cc2)C(=O)c2cccc3ccccc23)c2cc(OCCCO)ccc2N1C(=O)c1ccc(-c2ccccc2)cc1 (stereo not given in full)
4. O=C1OCCC/C=C\[C@H]2OC34C=CCN(Cc5ccccc5)C(=O)[C@H]3N(CCCO)C(=O)[C@@H]4C12 (stereo not given in full)
5. [N-]=[N+]=NCc1ccccc1[C@@H]1OC(c2ccc(OCCCO)cc2)=N[C@]1(Cc1ccccc1)C(N)=O
6. C=CCC(OC(C)=O)[C@@H]1[C@@H](N(Cc2ccc(-c3cccc(C(F)(F)F)c3)o2)C(=O)c2ccc(C)cc2)c2cc(OCCCO)ccc2N1C(=O)Cc1ccc2ccccc2c1 (stereo not given in full)
7. O=C1NC(=O)C2C1C=CC(C(O)c1cccs1)N2Nc1ccc(Cl)cc1Cl (stereo not given)
8. O[C@@H](Cc1ccccc1)[C@H]1C2C=CCCC=C2CN1Cc1cccc(Cl)c1 (stereo not given in full)

1: 0.437; 2: 0.837; 3: 0.175; 4: 0.948; 5: 0.783; 6: -0.253; 7: 0.723; 8: 0.385

For each of the molecules below, state composite z-score.
1. COc1cccc(-c2cccc(=O)o2)c1
2. CCC[C@@H]1C[C@@]1(CCC)[C@@H](NS(=O)(=O)c1cccc2cccnc12)c1ccc(Cl)cc1
3. CCCCCCc1nc(-c2cc(C)c(OC)c(C)c2)cc2c1[Si](C(C)C)(C(C)C)OC2
4. O=C1C[C@]2(c3ccc([N+](=O)[O-])cc3)C(=O)N(CC(F)(F)F)c3cc(CO)ccc3[C@H]2N1C1CCCCC1

0.111
0.457
0.0878
-0.634
